The entries below come with measured pIC50 values attached.
Biological target: T1, human amylin receptor (amylin 3(a) receptor: human calcitonin receptor plus RAMP-3) (human, UniProt P30988 25-474; O60896 24-148, limits assumed)
T1 construct: whole, on cells; the functional assay (Assay IIa) used the whole cells; also called hAmylin-R; hAmylinR
T1 sequence (looked up) 1: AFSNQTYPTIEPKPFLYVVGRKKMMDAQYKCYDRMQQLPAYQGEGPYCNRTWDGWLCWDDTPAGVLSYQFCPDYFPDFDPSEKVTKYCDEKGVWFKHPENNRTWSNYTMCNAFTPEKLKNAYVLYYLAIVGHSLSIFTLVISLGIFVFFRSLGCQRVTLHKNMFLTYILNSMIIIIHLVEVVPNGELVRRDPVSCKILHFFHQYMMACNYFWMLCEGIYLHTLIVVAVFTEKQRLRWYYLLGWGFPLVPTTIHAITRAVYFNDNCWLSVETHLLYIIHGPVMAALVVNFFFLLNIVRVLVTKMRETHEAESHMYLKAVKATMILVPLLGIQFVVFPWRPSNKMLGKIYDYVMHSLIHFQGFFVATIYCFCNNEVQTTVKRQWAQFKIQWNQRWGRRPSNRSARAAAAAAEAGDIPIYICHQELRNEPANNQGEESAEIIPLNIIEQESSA
T1 sequence (looked up) 2: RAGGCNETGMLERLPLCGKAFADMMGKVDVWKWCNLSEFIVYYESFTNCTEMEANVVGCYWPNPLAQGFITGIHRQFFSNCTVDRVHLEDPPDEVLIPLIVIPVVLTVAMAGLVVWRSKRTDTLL
Experiment: SPA competition binding, membranes of Amylin 3(a)/CRE-luc BHK cells, displacement of 125I-rat amylin (Assay V)
# pIC50 is unitless: minus log10 of the molar concentration; print number only

// solved cases for pIC50 follow
binder="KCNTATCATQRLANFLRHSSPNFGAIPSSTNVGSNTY (C20 diacid-gGlu-2xOEG on the alpha amino group of the N-terminal residue; Cys2-Cys7 disulfide and C-terminal amide as in human amylin, also called compound 24)" numeric_readout=8.94
binder="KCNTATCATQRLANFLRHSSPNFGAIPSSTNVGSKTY (C20 diacid-gGlu on the alpha amino group of the N-terminal residue; Cys2-Cys7 disulfide and C-terminal amide as in human amylin, also called compound 34) [N^α1-[(4S)-4-carboxy-4-(19-carboxynonadecanoylamino)butanoyl]-[Arg17,Pro21,Pro27,Lys35]-h-amylin]" numeric_readout=8.94

Let us move to another entry and its pIC50.
Task: # query: pIC50 of entry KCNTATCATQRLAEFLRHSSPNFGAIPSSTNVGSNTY (C20 diacid-gGlu on the alpha amino group of the N-terminal residue; Cys2-Cys7 disulfide and C-terminal amide as in human amylin, also called compound 9) [N^α1-[(4S)-4-carboxy-4-(19-carboxynonadecanoylamino)butanoyl]-[Glu14,Arg17,Pro21,Pro27]-h-amylin]
Output: 9.84
